Sourced from paper PMC10786891

target_or_system: T1, EsCas13d, nuclease-dead (Eubacterium siraeum, UniProt B0MS50, R295A;H300A;R849A;H854A)
T1 sequence: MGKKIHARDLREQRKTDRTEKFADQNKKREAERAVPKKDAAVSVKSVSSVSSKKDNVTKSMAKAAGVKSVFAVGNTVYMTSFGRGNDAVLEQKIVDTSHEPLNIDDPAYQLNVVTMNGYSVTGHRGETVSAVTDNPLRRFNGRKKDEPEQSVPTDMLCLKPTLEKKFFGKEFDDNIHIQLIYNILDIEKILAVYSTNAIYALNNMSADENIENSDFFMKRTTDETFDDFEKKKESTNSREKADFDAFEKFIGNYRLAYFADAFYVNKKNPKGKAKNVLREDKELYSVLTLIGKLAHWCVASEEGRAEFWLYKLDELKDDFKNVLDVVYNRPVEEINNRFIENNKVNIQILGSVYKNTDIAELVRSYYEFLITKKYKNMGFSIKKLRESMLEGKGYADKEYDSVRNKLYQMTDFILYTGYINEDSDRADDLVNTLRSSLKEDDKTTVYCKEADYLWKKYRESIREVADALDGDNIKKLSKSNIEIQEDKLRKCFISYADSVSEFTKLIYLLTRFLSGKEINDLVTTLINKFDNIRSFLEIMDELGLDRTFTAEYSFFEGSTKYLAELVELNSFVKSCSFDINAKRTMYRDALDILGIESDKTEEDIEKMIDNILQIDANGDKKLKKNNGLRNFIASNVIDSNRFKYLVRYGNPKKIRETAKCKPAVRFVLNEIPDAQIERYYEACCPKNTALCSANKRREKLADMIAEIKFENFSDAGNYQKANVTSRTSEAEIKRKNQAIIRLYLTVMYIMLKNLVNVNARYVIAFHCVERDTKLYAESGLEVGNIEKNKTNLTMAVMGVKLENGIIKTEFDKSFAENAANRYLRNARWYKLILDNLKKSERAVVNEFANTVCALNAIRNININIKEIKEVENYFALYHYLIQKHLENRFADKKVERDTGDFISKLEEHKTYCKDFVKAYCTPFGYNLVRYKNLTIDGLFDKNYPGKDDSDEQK
experimental_protocol: crRNA (strand 1, pre-loaded); Mg2+; 40 mM Tris-HCl pH 7.5, 150 mM NaCl, 6 mM MgCl2, 1 mM DTT, 0.1% Tween-20, 0.2 mg/ml BSA; 25 C; 10 min per concentration, then washed
condition_summary: tags: His6-TwinStrep-SUMO cleaved; N-terminal SNAP kept (SNAP-Surface 488); label: 3' end held by stalled T7 RNA polymerase

- binder: "target 1 insU 3' of 4,insA 3' of 4 (mixed) RNA 1: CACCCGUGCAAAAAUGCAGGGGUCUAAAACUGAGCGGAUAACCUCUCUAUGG RNA 2: GGGAAUGGAUCCACAUCUACGAAUUCGUACCAUAGAGAGGUUAUCCGCUAUCACCGAGAUCGGAAGAGCACACGU"
  Kd [nM]: 9.1
- binder: "target 1 A1U,C22U (mixed) RNA 1: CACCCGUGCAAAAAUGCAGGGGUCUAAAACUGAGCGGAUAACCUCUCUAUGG RNA 2: GGGAAUGGAUCCACAUCUACGAAUUCGUAUCAUAGAGAGGUUAUCCGCUCUCCGAGAUCGGAAGAGCACACGU"
  Kd [nM]: 17
- binder: "target 1 U19C,C21U (mixed) RNA 1: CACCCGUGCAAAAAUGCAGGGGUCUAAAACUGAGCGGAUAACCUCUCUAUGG RNA 2: GGGAAUGGAUCCACAUCUACGAAUUCGUACUACAGAGAGGUUAUCCGCUCACCGAGAUCGGAAGAGCACACGU"
  Kd [nM]: 5.98
